biological target: β2 adrenergic receptor (Homo sapiens (Human)); assay: cAMP Gs dynamic HTRF assay, β2 expressing CHO cells; format: cell-based; details: B2-AR; CHO-K cells; read-out: Average EC50 [Receptor subtype: B2-AR; Cell type: CHO-K]
Sequence (P07550 whole entry, species assumed): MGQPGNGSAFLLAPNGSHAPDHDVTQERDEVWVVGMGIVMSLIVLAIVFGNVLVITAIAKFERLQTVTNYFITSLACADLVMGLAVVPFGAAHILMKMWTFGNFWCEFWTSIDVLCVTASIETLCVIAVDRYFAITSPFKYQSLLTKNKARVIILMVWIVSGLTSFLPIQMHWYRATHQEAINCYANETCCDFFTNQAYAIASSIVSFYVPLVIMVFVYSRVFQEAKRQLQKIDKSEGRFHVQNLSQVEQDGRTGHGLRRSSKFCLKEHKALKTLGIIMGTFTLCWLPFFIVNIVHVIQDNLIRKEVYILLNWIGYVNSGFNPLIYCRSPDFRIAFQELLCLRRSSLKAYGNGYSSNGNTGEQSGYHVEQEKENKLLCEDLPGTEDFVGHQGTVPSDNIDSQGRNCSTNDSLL
So I've got a bunch of compounds here, and I need their EC50 values.

// field: EC50; key: CC(C)Oc1ncccc1[C@@H](O)CNC(C)(C)C ; value = 10 to 100 nM

// field: EC50; key: CC(C)NC[C@H](O)c1cccc(C2CC2)n1 ; value = < 10 nM

// field: EC50; key: CC(C)Oc1cccc([C@@H](O)CNC(C)(C)C)n1 ; value = < 10 nM

// field: EC50; key: CC(C)(C)NC[C@H](O)c1cccc(C(C)(F)F)n1 ; value = < 10 nM

// field: EC50; key: O[C@H](CNC1CCC1)c1cccc(C(F)(F)F)n1 ; value = > 1000 nM

// field: EC50; key: CCOc1cccc([C@@H](O)CNC(C)(C)C)n1 ; value = < 10 nM

// field: EC50; key: CC(C)(C)NCC(O)c1cc(C#N)cc(C(F)(F)F)n1 (centres unmarked) ; value = 100 to 1000 nM

// field: EC50; key: CC1(NC[C@H](O)c2cccc(C(F)(F)F)n2)CCOCC1 ; value = 100 to 1000 nM

// field: EC50; key: Cc1ccc([C@@H](O)CNC(C)(C)C)nc1C(F)(F)F ; value = < 10 nM

// field: EC50; key: CC(C)c1cccc([C@H](O)CNC(C)(C)C)n1 ; value = 100 to 1000 nM

// field: EC50; key: CC1(NC[C@H](O)c2cccc(C(F)(F)F)n2)CC1 ; value = 10 to 100 nM

// field: EC50; key: CCOc1ncccc1[C@@H](O)CNC(C)(C)C ; value = 10 to 100 nM

// field: EC50; key: CC(C)(C)NC[C@H](O)c1cccnc1C(F)(F)F ; value = 100 to 1000 nM

// field: EC50; key: CC(C)NC[C@H](O)c1cccc(C(F)(F)F)n1 ; value = 10 to 100 nM

// field: EC50; key: CCOc1cccc([C@H](O)CNC(C)(C)C)n1 ; value = 100 to 1000 nM

// field: EC50; key: CC(C)(C)NC[C@@H](O)c1cccc(-c2ccccc2F)n1 ; value = 10 to 100 nM

// field: EC50; key: CNc1cccc([C@H](O)CNC(C)(C)C)n1 ; value = 100 to 1000 nM

// field: EC50; key: COc1ccc(C[C@@H](C)NC[C@H](O)c2cccc(C(F)(F)F)n2)cc1 ; value = < 10 nM

// field: EC50; key: Cc1cccc([C@@H](O)CNC(C)(C)C)n1 ; value = 10 to 100 nM

// field: EC50; key: CC(C)(C)NC[C@@H](O)c1cccc(-c2cccc(Cl)c2)n1 ; value = 10 to 100 nM

// field: EC50; key: CC(C)(C)NC[C@H](O)c1ccc2ccccc2n1 ; value = < 10 nM

// field: EC50; key: CC(C)(C)NCC(O)c1cccnc1C(=O)O (centres unmarked) ; value = > 1000 nM

// field: EC50; key: CC(C)(C)NC[C@H](O)c1ccc(C#N)c(C(F)(F)F)n1 ; value = 10 to 100 nM

// field: EC50; key: CC(C)(C)NC[C@@H](O)c1cccc(C(C)(F)F)n1 ; value = 100 to 1000 nM

// field: EC50; key: CC(C)(C)NC[C@H](O)c1ccc(C(F)(F)F)cn1 ; value = 10 to 100 nM

// field: EC50; key: CC(C)c1cccc([C@@H](O)CNC(C)(C)C)n1 ; value = < 10 nM

// field: EC50; key: Cc1ccc([C@@H](O)CNC(C)(C)C)nc1C#N ; value = 100 to 1000 nM

// field: EC50; key: CC(C)(C)NC[C@H](O)c1cccc(N2CCOCC2)n1 ; value = < 10 nM

// field: EC50; key: O[C@@H](CNC1CCOCC1)c1cccc(C(F)(F)F)n1 ; value = > 1000 nM

// field: EC50; key: CC(C)(C)NC[C@@H](O)c1nccc2ccccc12 ; value = > 1000 nM

// field: EC50; key: Cc1cccc(-c2cccc([C@H](O)CNC(C)(C)C)n2)c1 ; value = 100 to 1000 nM

// field: EC50; key: CC(C)NC[C@@H](O)c1cccc(C(F)(F)F)n1 ; value = > 1000 nM

// field: EC50; key: CC(C)(C)NC[C@H](O)c1cccc(Br)n1 ; value = 10 to 100 nM

// field: EC50; key: CC(C)(C)NC[C@H](O)c1cccc(C#N)n1 ; value = < 10 nM

// field: EC50; key: Cc1ncccc1[C@@H](O)CNC(C)(C)C ; value = 10 to 100 nM
